Test: soluble on expression in E. coli; label from the status in PepcDB or PDB records
endpoint-name: soluble on expression in E. coli

primary-sequence: MGSDKIHHHHHHMPMIHYIFNREIVPPAIEPLLKQLFSGQNFTQSDRLLGYSKGRGITWFLNTQAELGINIVLRHYYRGGLFGKVVKDRYLFQRIDQTRAVQEFNLLTQMQRWHLPVPRPIAVEINKQSIFYRAKIMLEKIEHTQDLSKLLQTQPLVAEQYQQLGQLIRQLHDHQIHHSDLNIHNILLDDNGKFWLIDFDKCCIKAGEEWKQANLNRLLRSFHKEQTRLGIQFHQQNWQSLLTGYQQHNQGDNR
result: not soluble

primary-sequence: MLERTQVFVDTSYLLASFYNSWETGARAQLEIDLPEVVGVLGRMIEQQLKQPVQRQMWYDGIPDSGPHRYQRALRTCDGVQLRAGQLIEWGERRTQKAVDTRLVADLVLAGVRGQCSDIVLVSGDADMIPGVQEAANAGLRVHLYGFGWDSMSSQLRHCCDTTTILDPRED
result: not soluble

primary-sequence: MGSDKIHHHHHHMKYTYREAGVDVERGESFAKTIKSAVKLPEWVMKEPTGYASILTITTPPVVVTADGIGTKLILHRKHGTWRYAAEDLVGMNYNDLVCVGARPVAFLDYLGVERISEEHESFIKELVNVLDSVDVKLVGGETAEMPDVYRGDWDAVGFAVGVLEKRIPVDKIKEGDVIVGIPSSGFHSNGWSLIRRIIKEESIKIEELPFELLKGTRIYREVIELFDLVKGIAHVTGGGVVRALKRVLGKLGAHVSLPKRDFVDWILKYVDFNEAVNTFNMGVGMFLIVEKQKVDEVLARVDGTVVGKVSSDWRIEYGGEGG
result: not soluble
